measured-on: dopamine (DA) D-2 receptor subtype (Rattus norvegicus)
Construct: Specifically, rat striatal membranes were used; from tissue; host or cells: rat striatum (membranes)
Sequence (P61169 whole entry): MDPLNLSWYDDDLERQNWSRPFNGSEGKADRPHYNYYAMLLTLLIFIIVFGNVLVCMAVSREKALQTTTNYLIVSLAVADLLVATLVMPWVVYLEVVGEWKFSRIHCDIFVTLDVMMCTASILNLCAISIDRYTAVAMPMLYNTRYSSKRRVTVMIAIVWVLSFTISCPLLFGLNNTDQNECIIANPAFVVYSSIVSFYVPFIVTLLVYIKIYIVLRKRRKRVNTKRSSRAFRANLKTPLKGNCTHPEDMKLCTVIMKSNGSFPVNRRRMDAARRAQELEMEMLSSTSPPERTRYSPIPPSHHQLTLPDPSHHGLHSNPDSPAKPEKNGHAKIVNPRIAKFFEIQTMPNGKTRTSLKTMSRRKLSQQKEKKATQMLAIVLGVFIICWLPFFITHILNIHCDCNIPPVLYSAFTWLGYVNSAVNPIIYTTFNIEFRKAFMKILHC
test-method-notes: Test A: dopamine D-2 receptor binding assay, displacement of [3H]-spiperone
condition: displacement of 0.5 nM [3H] spiperone; rat striatal membranes; 37°C for 15 min; typical result; read-out: IC50
readout-label: IC50 (nM)
The response must be a number in nM with no trailing unit.

// lookup IC50 | system=dopamine (DA) D-2 receptor subtype (Rattus norvegicus) | key= CC(C)(C)C1(O)CCN(CC23CC(c4ccccc42)c2ccc(Cl)cc23)CC1 (stereo not shown)
3

Values compiled from patent EP0533344B1.
